Here, each record is paired with measured log10(TGI) data.
- System: HL-60(TB)
- ASSAY_SUMMARY: Growth inhibition of human HL-60(TB) cells after 48 hrs by sulforhodamine B assay
- Format: functional
- MEASUREMENT_CONDITIONS: HL-60, 48 h, read-out: pTGI (converted)
All values: base-10 log of TGI in µM.

LINE_NOTATION: COc1cc(/C=C/c2cc(F)c3c(c2)C[C@@H]2C(C)(C)[C@H](O)CC[C@@]2(C)O3)cc(O)c1C/C=C(\C)CCC=C(C)C
OUTCOME_MEASURE: log10(TGI)
RECORDED_NUMBER: 0.74
//
LINE_NOTATION: COCOc1cc(/C=C/c2cc(C=O)c3c(c2)C[C@@H]2C(C)(C)[C@H](O)CC[C@@]2(C)O3)cc(OC)c1C/C=C(\C)CCC=C(C)C
OUTCOME_MEASURE: log10(TGI)
RECORDED_NUMBER: 1.78
//
LINE_NOTATION: COc1cc(/C=C/c2cc3c(c(SC)c2)O[C@]2(C)CC[C@@H](O)C(C)(C)[C@H]2C3)cc(O)c1C/C=C(\C)CCC=C(C)C
OUTCOME_MEASURE: log10(TGI)
RECORDED_NUMBER: 1.56
//
LINE_NOTATION: COc1cc(/C=C/c2cc3c(c(OC)c2)O[C@]2(C)CC[C@@H](O)C(C)(C)[C@H]2C3)cc(O)c1C/C=C(\C)CCC=C(C)C
OUTCOME_MEASURE: log10(TGI)
RECORDED_NUMBER: 0.82
//
LINE_NOTATION: COc1cc(/C=C/c2cc(O)c3c(c2)C[C@@H]2C(C)(C)[C@H](O)CC[C@@]2(C)O3)cc(O)c1C/C=C(\C)CCC=C(C)C
OUTCOME_MEASURE: log10(TGI)
RECORDED_NUMBER: 0.16
//
LINE_NOTATION: COc1cc(/C=C/c2ccc3c(c2)C[C@@H]2C(C)(C)[C@H](O)CC[C@@]2(C)O3)cc(O)c1C/C=C(\C)CCC=C(C)C
OUTCOME_MEASURE: log10(TGI)
RECORDED_NUMBER: 1.76

# ---- query molecule ----
According to the records, this molecule "COCOc1cc(/C=C/c2cc(CO)c3c(c2)C[C@@H]2C(C)(C)[C@H](O)CC[C@@]2(C)O3)cc(OC)c1C/C=C(\C)CCC=C(C)C" displays log10(TGI) of 1.53

====

- Test system: UACC-62
- ASSAY_SUMMARY: Growth inhibition of human UACC62 cells after 48 hrs by sulforhodamine B assay
- Format: functional
- MEASUREMENT_CONDITIONS: UACC-62, 48 h
Here, each record is paired with measured GI50 data.
State just the number; it will be interpreted in µM.

Illustrative cases are given below, each with its answer.
LINE_NOTATION: COc1cc(/C=C/c2cc(O)c3c(c2)C[C@@H]2C(C)(C)[C@H](O)CC[C@@]2(C)O3)cc(O)c1C/C=C(\C)CCC=C(C)C
OUTCOME_MEASURE: GI50
RECORDED_NUMBER: 0.204
--
LINE_NOTATION: COc1cc(/C=C/c2cc(F)c3c(c2)C[C@@H]2C(C)(C)[C@H](O)CC[C@@]2(C)O3)cc(O)c1C/C=C(\C)CCC=C(C)C
OUTCOME_MEASURE: GI50
RECORDED_NUMBER: 14.1
--
LINE_NOTATION: COc1cc(/C=C/c2cc3c(c(OC)c2)O[C@]2(C)CC[C@@H](O)C(C)(C)[C@H]2C3)cc(O)c1C/C=C(\C)CCC=C(C)C
OUTCOME_MEASURE: GI50
RECORDED_NUMBER: 1.07
--
LINE_NOTATION: COc1cc(/C=C/c2cc3c(c(SC)c2)O[C@]2(C)CC[C@@H](O)C(C)(C)[C@H]2C3)cc(O)c1C/C=C(\C)CCC=C(C)C
OUTCOME_MEASURE: GI50
RECORDED_NUMBER: 7.08
--
LINE_NOTATION: COCOc1cc(/C=C/c2cc(CO)c3c(c2)C[C@@H]2C(C)(C)[C@H](O)CC[C@@]2(C)O3)cc(OC)c1C/C=C(\C)CCC=C(C)C
OUTCOME_MEASURE: GI50
RECORDED_NUMBER: 0.55

According to the records, this compound "COCOc1cc(/C=C/c2cc(C=O)c3c(c2)C[C@@H]2C(C)(C)[C@H](O)CC[C@@]2(C)O3)cc(OC)c1C/C=C(\C)CCC=C(C)C" displays GI50 of 4.07

According to the records, this compound "COc1cc(/C=C/c2ccc3c(c2)C[C@@H]2C(C)(C)[C@H](O)CC[C@@]2(C)O3)cc(O)c1C/C=C(\C)CCC=C(C)C" displays GI50 of 12.9

Data origin, for the record: ChEMBL document CHEMBL1926642
